# merged literature set: Ki with Histamine H1 receptor (Homo sapiens)
# Sequence (P35367 whole entry): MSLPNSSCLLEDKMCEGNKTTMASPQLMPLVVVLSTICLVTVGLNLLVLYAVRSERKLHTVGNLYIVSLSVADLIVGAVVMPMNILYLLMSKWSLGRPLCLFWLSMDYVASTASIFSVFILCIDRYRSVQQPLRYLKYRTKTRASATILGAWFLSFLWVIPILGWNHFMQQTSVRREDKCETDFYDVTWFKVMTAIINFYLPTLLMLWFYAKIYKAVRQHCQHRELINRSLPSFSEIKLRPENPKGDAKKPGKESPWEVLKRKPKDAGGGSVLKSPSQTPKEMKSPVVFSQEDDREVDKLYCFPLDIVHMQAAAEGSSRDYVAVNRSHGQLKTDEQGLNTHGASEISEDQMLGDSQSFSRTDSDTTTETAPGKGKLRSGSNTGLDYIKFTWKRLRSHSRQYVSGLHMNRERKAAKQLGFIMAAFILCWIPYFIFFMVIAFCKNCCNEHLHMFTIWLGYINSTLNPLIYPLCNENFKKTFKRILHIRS
REPORTED_PROPERTY: Ki (µM)

A = C[C@@H]1CCCN1CCN1CCc2cc(-c3ccc(C(=O)N4CCCC4)cc3)ccc2C1=O
B = CCOC(=O)N1CCN(CCCOc2ccc(C(C)=O)cc2)CC1
Pick one: A or B . Which has the bigger Ki number? Indicate your choice by writing its label.
A

A = CCCCCCCC(=O)c1ccc(OCCCN2CCN(C(=O)OCC)CC2)cc1
B = CCC(CNC(=O)/N=C(\N)NCCCc1sc(N)nc1C)c1ccccc1 (stereo unspecified)
Pick one: A or B . Which has the bigger Ki number? Indicate your choice by writing its label.
B

a = CCCCCC(=O)c1ccc(OCCCN2CCN(C(=O)C(C)C)CC2)cc1
b = COc1cc(F)ccc1O[C@H](c1ccccc1)[C@H]1CNCCO1
c = C[C@H](N)C(=O)N1CCN(CCCOc2ccc(C(=O)C3CC3)cc2)CC1
Please list these compounds in decreasing order of Ki. In your reply, arrange the labels in the requested order.
c, a, b
(c: 53.7 µM, a: 3.98 µM, b: 0.01 µM)

A = Cc1nc(N)sc1CCCN/C(N)=N/C(=O)NCc1ccco1
B = c1ccc(Cc2ccccc2OCCN2CCC2)cc1
Given A and given B , which shows the smaller recorded Ki? Indicate your choice by writing its label.
B
(B: 0.00631 µM, A: 24 µM)
